Data origin, for the record: patent US20180282430A1

Target: T1, Human TFPI (tissue factor pathway inhibitor) (human, UniProt P10646 29-304, limits assumed)
T1 construct: Coated at 1 ug/ml on Maxisorb plates for the ELISA; For the Biacore work the human TFPI came from American Diagnostica
T1 sequence (looked up): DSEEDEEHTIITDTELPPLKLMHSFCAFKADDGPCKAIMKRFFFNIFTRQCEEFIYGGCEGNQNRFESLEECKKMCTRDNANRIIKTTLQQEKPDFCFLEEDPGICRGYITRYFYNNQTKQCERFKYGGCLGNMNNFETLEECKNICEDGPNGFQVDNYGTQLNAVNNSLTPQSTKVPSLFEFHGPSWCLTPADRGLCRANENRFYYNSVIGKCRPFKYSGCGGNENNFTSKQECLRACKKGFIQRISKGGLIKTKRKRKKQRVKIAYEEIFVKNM
Assay: ELISA on plate-coated human TFPI; Fab expression media bound, then 1 h at 37 C in 100 mM citrate pH 6.0; amplex red

# BINDER, TFPI ELISA signal, pH 6.0
measured = [
    ("2A8-g200 Fab VL-V45H (Fab, V domains shown, Member of the 2A8-g200 Fab histidine scanning library) VH: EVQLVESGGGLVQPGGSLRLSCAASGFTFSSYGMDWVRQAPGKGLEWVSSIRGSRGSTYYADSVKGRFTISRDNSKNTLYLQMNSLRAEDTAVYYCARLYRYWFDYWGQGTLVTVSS VL: SYELTQPPSVSVSPGQTARITCSGDNLPKYYAHWYQQKPGQAPVHVIFYDVNRPSGIPERFSGSNSGNTATLTISGTQAMDEADYYCQAWWSSTPVFGGGTKLTVLG", 1770),
]
